Tested on: ACHN
assayInfo: NCI tumour cell line growth inhibition, 48 h
Active and inactive are the calls of the source. Cut-off read from the data, not from the text of the source: active = GI50 up to about 1.1 µM and inactive = higher.

# compound, GI50
rows = [
    ("C=C(Cl)C(Cl)(CBr)CCCC(C)C (stereo not given)", "13.3 µM (inactive)"),
    ("C=CCC12CCC(=O)C=C1CCC1(C2)OCCO1 (stereo not given)", "> 100 µM (inactive)"),
    ("CN(C(=O)c1ccncc1)c1ccccc1", "> 100 µM (inactive)"),
    ("CCC1C(c2cccc(OC)c2O)c2cc3c(cc2OC1N1CCCC1)OCO3 (stereo not given)", "15 µM (inactive)"),
    ("CCOC(=O)C1=C(C)N(c2ccc(OC)cc2)C2(O)C=CC(O)=C3C(=O)c4ccccc4C(=O)C312 (stereo not given)", "14.3 µM (inactive)"),
    ("Cc1ccc(S(=O)(=O)N/N=C(\\CCN2CCCC2)CC(c2ccccc2)c2c(O)c3ccccc3oc2=O)cc1 (stereo not given)", "> 100 µM (inactive)"),
    ("CNc1nc2c(C)ccc3nc(N(C)C)[nH]c3c-2n1", "15.2 µM (inactive)"),
    ("O=C(O)c1ccc(Nc2cnc3ccc(C(F)(F)F)cc3n2)cc1", "18 µM (inactive)"),
    ("O=C(N/N=C/c1cc(Br)ccc1O)N/N=C/c1cc(Br)ccc1O", "4.6 µM (inactive)"),
    ("CC1(C)C2CCC1(C)[C@H](n1c(=O)n([C@@H]3CC4CCC3(C)C4(C)C)c(=O)n([C@@H]3CC4CCC3(C)C4(C)C)c1=O)C2", "37.8 µM (inactive)"),
]
